- assay_name: yeast display, Sf9 membrane polyspecificity reagent, FACS + sequencing; frameworks hold sequencing errors
readout: polyreactivity (PSR sort gate)

1) QVQLVESGGGLVQAGGSLRLTCAASGITFYDNAMGWYRQAPGKERELVAGISYDGDSTYADSVKGRFTNSRDNAKNTVYLQMNSLKPEDTAVYYCAADSSGEYPGGYWGQGTQVTVSS = low polyreactivity
2) QVQLVESGGGLVQAGGSLRLSCAASGFILSDNAMGWYRQAPGKEREFVAAITSSGGSTHYADSVKGRFTISRDNAKNTVYLQMNSLKPEDTAVYYCAVGRPYWYDVWSFVSHYDYWGQGTQVTVSS = low polyreactivity

* * *

- assay_name: yeast display, Sf9 membrane polyspecificity reagent, FACS + sequencing; frameworks hold sequencing errors
readout: polyreactivity (PSR sort gate)

Example entries begin here.
1. QVQLVESGGGLVQAGGSLRLSCAASGSIFGYNAMGWYRQAPGKERELVAAISGGGGTYYADSVKGRFTISRDNAKNTVYLQMNSLKPEDTAVYYCATDRVHKWLFYGTYYRYEYWGQGTHVTVSS = low polyreactivity
2. QVLLVESGGGLVQAGGSLRLSCAASGSTFPGNAMGWYRQAPGKERELVARINDGADTNYADSVKGRFTISRDNAKNTVNLQMNSLKPEDTAVYYCATPYYDGRTHFDSWGQGTQVTVSS = low polyreactivity
3. QVQLLESGGGLVQAGGSLRLSCAASGRIFPRYAMGWYRQAPGKERELVASITRRGGSTYYADSVKGRFTISRDNAKNTVYLQMNSLKPEDTAVYYCNALPRAQSYELYNYWGQGTQVTVSS = high polyreactivity
4. QVQLVESGGGLLQAGGSLRLSCAASGSILGPYAMGWYRQAPGKERELVAGIDATDGSTYYADSVKGRFTISRDNAKNTVYLQMNSLKPEDTAVYYCAAAPYAYYGEYNYWGQGTQVTVSS = low polyreactivity
5. QVQLVESWGGLVQAGGSLRLSCAASGFIFSRYAMGWYRQAPGKERELVAAISSRGGSTYYADSVKGRFTISRDNAKNTVYLQMNSLKPEDTAVYYCAKSSPTPHYYWGQGTQVTVSS = high polyreactivity
6. QVQLVESGGGLVQAGGSLRLSCAASGSIFPINAMGWSRQAPGKERELVAAITVSDGRTYYADSVKGRFTISRDNAKNTVYLQMNSLKPEDTAVYYCAAVTPFRVLYDYWGQGTQVTVSS = low polyreactivity

Field: next sequence
Any idea what polyreactivity (PSR sort gate) was measured for QVQLVESGGGLVQAGGSLRLSCAASGRIFGAYAMGWYRQAPGKERELVAAITSGGSTYYADSVKGRFTISRDNAKNTVYLQMNSLKPEDTAVYYCNALRRSQPWKYDYWGQGTQVTVSS ?
low polyreactivity

* * *

- assay_name: yeast display, Sf9 membrane polyspecificity reagent, FACS + sequencing; frameworks hold sequencing errors
readout: polyreactivity (PSR sort gate)

1) QVQLVESGGCLVQAGGSLRLSCAASGSIFSLYAMGWYRQAPGKEWEFVASISRSGGITYYADSVKGRFTISRDNAKNTVYLQMNSLKPEDTAVYYCAAVGWVSYRRYDYWGPGTQVTVSS = high polyreactivity
2) QVQLVESGGGLVQAGGSLRLSCAASGSTFYIYGMGWYRQAPGKERELVAAISSSGGRTNYADSVKGRFTISRDNAKNTVYLQMNSLKPEDTAVYYCAARRWQGYAGWYDYWGQGTQVTVSS = high polyreactivity
3) QVQLVESGGGLVQAGGSLRLSCAASGFIFRYYAMGWYRHAPGKERELVAAISSGGRTSYADSVKGRFTISRDNAKNTVYLQMNSLKPEDTAVYYCAADSWRGLFYYGNDYWGQGTQVTVSS = high polyreactivity

* * *

- assay_name: yeast display, Sf9 membrane polyspecificity reagent, FACS + sequencing; frameworks hold sequencing errors
readout: polyreactivity (PSR sort gate)

1. QVQLVESGGGLVQAGGSLRLSCAASGRIFRYNAMGWYRQAPGKERELVASITSAGSTIYADSVKGRFTISRDNAKNTVYLQMNSLKPEDTAVYYCNKRRAYGYYLFDYWGQGTQVTVSS = high polyreactivity
2. QGQLVESGGGLVQAGGSLRLSSAASGSTFVYAMGWYRQAPGKERVLVASISWSDSSTYYADSVKGRFTISRDNAKNTVYLQMNSQKREDTAVYYGYADQGTRDSDYWGQGTQGTVSS = low polyreactivity
3. QVQLVESGGGLVQAGGSLRLSCAASGFTIAPDAMGWYRPAPGKERELVADISYSGGSKYYADSVKGRFTISRDTAKNTVYLQMNSLKPEDTAVYYCNAVIWWYWGRSYAYNYWGQGTQVTVSS = high polyreactivity
4. QVQLVESGGGLVQAGGSLRLSSAASGIFWNYAMGWYRQAPGKERELVAAISGSGGSTYYADSVKGRFTISRDNAKNTVYLQINSLKPEDTAVYYCAAEPGNHIWIYDYWGQGTQVTVSS = low polyreactivity
5. QVQLVESGGGLVQAGGSLRLSCAASGFTFRLYAMGWYRQAPGKERELVAAISSRGTTTYYADSVKGRFTNSRDNAKKTGYLQMNSLKPEDTAVYNCNKEYTSYGYDLEYDYWGQGTQVTVSS = low polyreactivity
6. QVQLVESGVGLVQAGGSLRLSCAASGIIFRYYAMGWYRQAPGKERELVAAISSSGVSTYYADSVKGRFTISRDNAKNTVYLQMNSLKPEDTAVYYCNAVIWVRQYFSRSSSNYWGQGTQVTVSS = high polyreactivity
7. QVQLVESGGGLVQAGGSLRLSCAASGRIFFKNAMGWYRQAPGKERELVAGISWSGGRTYYADSVKGRFTISRDNAKNTVYLQMNSLKPEDTAVYYCNAGSSFYRSLRYEYWGQGTQVTVSS = high polyreactivity
8. QVQLVESGGGLVQAGGSLRLSCAASGSTFSPYAMGWYRQAPGKERELVANITISGGSTYYADSVKGRFTISRDNAKNTVYLQMNSLKPEDTAVYYCNADSLIRWLFTVVIFDYWGQGTEVTVSS = low polyreactivity

Any idea what polyreactivity (PSR sort gate) was measured for QVQLVESGGGLVQAGGSLRLSCAATGSIIVYNTMGWYRQAPGKERELVAAITVRDDSTYYADSVKGRFTISRDNAKNTVYLQMNSLKPEDTAVYYCNARGNFLIGRDYWGQGTQVTVSS ?
low polyreactivity

Any idea what polyreactivity (PSR sort gate) was measured for QVQLVESGGGLVQAGGRLRLSCAASGSIFNYYARGWYRQAPGKERELVAAIPTSGGNPYYADSVKGRFTISRDNAKNTVKLQMNSLKPEDTALYNCAADYWASGGEYDYWGQGTQVTVSS ?
low polyreactivity

Any idea what polyreactivity (PSR sort gate) was measured for QVQLVESGGGLVQAGGSLRLSCAASGSTFDWYTMGWYRQAPGKERELVAAISSGGRTYYADSVKGRFTISRDNAKNTVYLQMNSLKPEDTAVYYCAVAWRVGITKYGYWGQGTQVTVSS ?
high polyreactivity

Any idea what polyreactivity (PSR sort gate) was measured for QDQLVESGGGLVQAGGILRLSCAASGRTFLPNAMGWYRQSPGKEREFVASINGDGTTYYADSVKGRFTISRDNAKNTVYLQMNSLKPEDTAVYYCAKDRDFSSPPTESGFDFWGQGTQVTVSS ?
low polyreactivity

Any idea what polyreactivity (PSR sort gate) was measured for QVQLVESGGGLVQAGGSLRLSCAASGSIFSSYAMGWYRQAPGKERELVAAISSSGDSTYADSVKGRFTISRDNAKNTVYLQMNSLKPEDTAVYDCAVGGAGSDDYWGQGTQVTVSS ?
low polyreactivity

Any idea what polyreactivity (PSR sort gate) was measured for QVQLVESGGGLVQAGGSLRLSCAASGRIFLVYAMGWSRPAPGKERELVAAISYSGGRTYYADSVKGRFTISRDNAKNTVYLQMNSLKPEDTAVYYCAASPRYSYLAQGLDYDYWGQGTQVTVSS ?
high polyreactivity

* * *

- assay_name: yeast display, Sf9 membrane polyspecificity reagent, FACS + sequencing; frameworks hold sequencing errors
readout: polyreactivity (PSR sort gate)

Example entries begin here.
1. QVQLVESGGGLFQAGGSLRLSCAASGFIFPINAMGWYRQAPGKERELVAAITSGGRTNYADSVKGRFTISRDNAKNTVYLQMNSLKPEDTAVYYCNAVVFVLNVEYYPWLLNNYWGQGTQVTVSS = low polyreactivity
2. QVQLVESGGGLVQAGGSLRLSCAASGSIFGHNAMGWYRQAPGKERELVAAITSTGGSTYYADSVKGRFTISRDNAKNTVYLQMNSLKPEDTAVYYCAKGWYAGYPYDYWGQGTQVTVSS = low polyreactivity
3. QVQLVESGGGLVQAGGSLRLSCAASGSTSGKYGMGWYRQAPGKVRELVAGITKGGGGTYYADSVKGRFTISRDNAKNTVYLQMHSLKPEDTAVYYCAKYYGSGYYIYDYWGQGTQVTVSS = low polyreactivity
4. LVQLVESGGGLVQAGGSLRLSCAASGSTFGYNAMGWYRQAPGKERELVAAISRGAGSTYYADSVKGRFTITRDNAKYTVYLQMNCLKPEDTAVYYCAKERPRGAPAYYSRIYDYWGQGTQVTVSS = high polyreactivity
5. QVQLVESGGGLVQAGGSLRLSCAASGSNFRGNAKGWSRQAPGKERELVAAISKSGGSTYYADSVKGRFTISRDNAKNTVYLQMNSLKPEDTAVYYCAARTTYLYGMYYWGQGTQVTVSS = low polyreactivity

Any idea what polyreactivity (PSR sort gate) was measured for QVKLVESGGGLVQAGGSLRLSCAASGIIFQYYAMGWYRQAPGKESELVAAISWSGGSTYYADSVKGRFTISRDNAKNTVYLQMNSLKPEDTAVYYCAARSRSYWPYEGYYWGQGTQVTVSS ?
low polyreactivity

Any idea what polyreactivity (PSR sort gate) was measured for QVQLVESGGGLVQAGGSLRLSCAASRIFAYYTMGWIRQSPGKERELVAAITYSGGSTFYADSVKGRFTISRDNAKNTVYLQMNRLKPEDSSVYYCNAVVRNYGYDYWGQGTQVTVSS ?
high polyreactivity

Any idea what polyreactivity (PSR sort gate) was measured for QVQLVESGGSLVQEGGSLRLSCAASGRTYNVMGWDRQAPGKERELVAAITWGGGSTHYADSVKGRFTISRDNAKNTVYVQMNSLKPEDTAVYYCAADLLYKSTRVDYWGQGTQVTVSS ?
low polyreactivity

Any idea what polyreactivity (PSR sort gate) was measured for QVQLVESGGGLVQAGGSLRLSCAASGRTFSQYAMGWYRQAPGKERELVAPISWSGGSTYYADSVKGRFTISRDNAKNTVDLQMNSLKPEDTAVFYCAAVGKGSSRSSYPVLYDYWGQGTQVTVSS ?
low polyreactivity

Any idea what polyreactivity (PSR sort gate) was measured for QVQLVESGGGLVHAGGSLRLSSAPSGSTFQAYAMGWYRAAPGKERELVAAINEGDSRTYYADSVKGRFTISRDNAKNTVYLPMNSQKPEDTAVYYCAIGNFRPYDYWGQGTQVTVSS ?
low polyreactivity

Any idea what polyreactivity (PSR sort gate) was measured for QVQLVESGGGLVQAGGSLRLSCAASGRIFYPYAMGWYRQAPGKERELVAAISWSTGNTYYADSVKGRFTISRDNAKNTVYLQMNSLKPEDTAVYYCNARLAPVRRYWYSGYDYWGQGTQVTVSS ?
high polyreactivity
